# system: human JAK3 (a.a. 781-1124) (Homo sapiens, UniProt P52333)
# Construct: JAK3 (a.a. 781-1124); His tag (N); made in house; host or cells: insect cells (baculovirus)
# Sequence (P52333 781-1124): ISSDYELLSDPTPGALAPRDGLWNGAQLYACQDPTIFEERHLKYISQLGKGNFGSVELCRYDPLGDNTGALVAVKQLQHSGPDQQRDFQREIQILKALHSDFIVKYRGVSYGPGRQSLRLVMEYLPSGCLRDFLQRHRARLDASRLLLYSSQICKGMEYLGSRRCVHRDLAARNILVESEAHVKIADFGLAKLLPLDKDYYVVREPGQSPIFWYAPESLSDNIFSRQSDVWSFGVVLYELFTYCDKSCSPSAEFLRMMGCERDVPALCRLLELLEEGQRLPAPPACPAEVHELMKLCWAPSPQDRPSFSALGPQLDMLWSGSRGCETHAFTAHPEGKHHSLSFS
# assay-name: In vitro JAK kinase assay (HTRF, phosphorylation of a biotinylated peptide), JAK3
# Assay type: biochemical
# run-conditions: Table D1
pIC50: −log10 of the molar value. Counter-ions that a name gives are not always drawn.
measured-metric: pIC50

See these solved cases before continuing.
                                   molecule                                    system  measured_metric  measurement
0  O=S(=O)(c1ccccc1F)N1CCC(CCNc2ccc3cc2CCc2cncc(c2)Nc2ncc(Cl)c(n2)N3)CC1 [Example D221, tris(trifluoroacetate)]  human JAK3 (a.a. 781-1124) (Homo sapiens, UniProt P52333)            pIC50       < 6.40
1  O=C(C[C@@H]1CCCN(C(=O)c2ccccc2)C1)Nc1ccc2cc1CCc1cccc(c1)Nc1ncc(Cl)c(n1)N2 [Example D202, trifluoroacetate]  human JAK3 (a.a. 781-1124) (Homo sapiens, UniProt P52333)            pIC50         7.19

Kindly review the next molecule as well.
Q: Identify measured pIC50 associated with O=C(Cc1ccccc1)N1CCC(Nc2ccc3cc2CCc2cncc(c2)Nc2ncc(Cl)c(n2)N3)CC1 [Example D159, tris(trifluoroacetate)]
A: < 6.40

###

# system: human JAK2 (a.a. 828-1132) (Homo sapiens, UniProt O60674)
# Construct: JAK2 (a.a. 828-1132); His tag (N); made in house; host or cells: insect cells (baculovirus)
# Sequence (O60674 828-1132): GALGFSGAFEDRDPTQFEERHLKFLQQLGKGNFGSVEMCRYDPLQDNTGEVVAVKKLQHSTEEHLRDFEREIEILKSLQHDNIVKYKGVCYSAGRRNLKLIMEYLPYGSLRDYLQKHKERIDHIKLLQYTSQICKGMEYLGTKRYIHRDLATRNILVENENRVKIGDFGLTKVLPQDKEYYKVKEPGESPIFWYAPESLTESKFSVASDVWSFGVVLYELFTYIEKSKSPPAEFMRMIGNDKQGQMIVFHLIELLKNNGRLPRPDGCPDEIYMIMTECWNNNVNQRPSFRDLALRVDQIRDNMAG
# assay-name: In vitro JAK kinase assay (HTRF, phosphorylation of a biotinylated peptide), JAK2
# Assay type: biochemical
# run-conditions: Table D1
# key: entry, value: IC50

In [3]: df
Out[3]:
                                   molecule                                    system  measurement
0  O=C(c1cccnc1Cl)N1CCC(CCOc2ccc3cc2CCc2cncc(c2)Nc2ncc(Cl)c(n2)N3)CC1 [Example D179, tris(trifluoroacetate)]  human JAK2 (a.a. 828-1132) (Homo sapiens, UniProt O60674)     > 400 nM
1  CC1(C)Cc2cccc(NC(=O)N3CCC(CCOc4ccc5cc4CCc4cncc(c4)Nc4ncc(Cl)c(n4)N5)CC3)c2O1 [Example D175, bis(trifluoroacetate)]  human JAK2 (a.a. 828-1132) (Homo sapiens, UniProt O60674)     > 400 nM

Could you now look at the following molecule, please?
Q: Give the reported IC50 for this molecule. O=C(c1cccnc1)N1CCC(CCOc2ccc3cc2CCc2cncc(c2)Nc2ncc(Cl)c(n2)N3)CC1 [Example D180, tris(trifluoroacetate)]
A: > 400 nM

###

Catalogue of pIC50 values
# system: human JAK2 (a.a. 828-1132) (Homo sapiens, UniProt O60674)
# Construct: JAK2 (a.a. 828-1132); His tag (N); made in house; host or cells: insect cells (baculovirus)
# assay-name: In vitro JAK kinase assay (HTRF, phosphorylation of a biotinylated peptide), JAK2
# Type: biochemical
# run-conditions: Table D1
pIC50: −log10 of the molar value.

compound	pIC50
Clc1cnc2nc1Nc1ccc(OCC3CCNCC3)c(c1)CCc1cncc(c1)N2 [Example D225, tris(trifluoroacetate)]	< 6.40
O=C(COc1ccc2cc1CCc1cncc(c1)Nc1ncc(Cl)c(n1)N2)N1CCN(C(=O)C2CCOC2)CC1 (stereo not drawn) [Example D271, bis(trifluoroacetate)]	< 6.40

Q: Supply reported pIC50 belonging to this compound: N#Cc1ccccc1N1CCN(C(=O)COc2ccc3cc2CCc2cncc(c2)Nc2ncc(Cl)c(n2)N3)CC1 [Example D235, tris(trifluoroacetate)]
A: < 6.40

###

# system: human JAK2 (a.a. 828-1132) (Homo sapiens)
# Construct: JAK2 (a.a. 828-1132); His tag (N); made in house; host or cells: insect cells (baculovirus)
# assay-name: In vitro JAK kinase assay (HTRF, phosphorylation of a biotinylated peptide), JAK2
# Type: biochemical
# run-conditions: method AA1 (30 μM ATP) or AA2 (1000 μM ATP), not stated per value
Counter-ions that a name gives are not always drawn.
Measured log10(IC50) values are reported for all entries that follow.
// do not treat as linear: log10 of IC50, unit nM

Below, each entry is followed by its recorded log10(IC50) result.
molecule	system	measured-metric	measurement
O=C(Nc1ccc2cc1CCc1cccc(c1)Nc1ncc(Cl)c(n1)N2)C1CCN(C(=O)Nc2ccccc2)CC1 [Example A36, trifluoroacetate]	human JAK2 (a.a. 828-1132) (Homo sapiens)	log10(IC50)	0.83
N#Cc1c(Cl)cncc1N1CCC(CC(=O)Nc2ccc3cc2CCc2cncc(c2)Nc2ncc(Cl)c(n2)N3)CC1 [Example A240, tris(trifluoroacetate)]	human JAK2 (a.a. 828-1132) (Homo sapiens)	log10(IC50)	1.90
CCNC(=O)N1CCN(C(=O)COc2ccc3cc2CCc2cccc(c2)Nc2ncc(Cl)c(n2)N3)CC1 [Example A12, trifluoroacetate]	human JAK2 (a.a. 828-1132) (Homo sapiens)	log10(IC50)	1.04
Cc1ccc(N2CCC(CC(=O)Nc3ccc4cc3CCc3cncc(c3)Nc3ncc(Cl)c(n3)N4)CC2)nn1 [Example A173, tris(trifluoroacetate)]	human JAK2 (a.a. 828-1132) (Homo sapiens)	log10(IC50)	1.95
C[N+]1(C)CCC(CC(=O)Nc2ccc3cc2CCc2cccc(c2)Nc2ncc(Cl)c(n2)N3)CC1	human JAK2 (a.a. 828-1132) (Homo sapiens)	log10(IC50)	2.01

Q: Using human JAK2 (a.a. 828-1132) (Homo sapiens) as the test system, report measured log10(IC50) of Cc1noc(C)c1S(=O)(=O)N1CCC(CC(=O)Nc2ccc3cc2CCc2cncc(c2)Nc2ncc(Cl)c(n2)N3)CC1 [Example A231, bis(trifluoroacetate)] .
A: 1.93

Q: Please report log10(IC50) with human JAK2 (a.a. 828-1132) (Homo sapiens) for item O=C(CC1CCN(C(=O)Nc2ccccc2)C1)Nc1ccc2cc1CCc1cncc(c1)Nc1ncc(Cl)c(n1)N2 (stereo not shown) [Example A92, bis(trifluoroacetate)] .
A: 0.79

Q: Name the value of log10(IC50) reported for O=C(CC1CCN(C(=O)c2nccs2)CC1)Nc1ccc2cc1CCc1cncc(c1)Nc1ncc(Cl)c(n1)N2 [Example A133, bis(trifluoroacetate)] when tested on human JAK2 (a.a. 828-1132) (Homo sapiens).
A: 1.04

###

Entries annotated with measured pIC50
# system: UniProt P29597
# Sequence (P29597 whole entry): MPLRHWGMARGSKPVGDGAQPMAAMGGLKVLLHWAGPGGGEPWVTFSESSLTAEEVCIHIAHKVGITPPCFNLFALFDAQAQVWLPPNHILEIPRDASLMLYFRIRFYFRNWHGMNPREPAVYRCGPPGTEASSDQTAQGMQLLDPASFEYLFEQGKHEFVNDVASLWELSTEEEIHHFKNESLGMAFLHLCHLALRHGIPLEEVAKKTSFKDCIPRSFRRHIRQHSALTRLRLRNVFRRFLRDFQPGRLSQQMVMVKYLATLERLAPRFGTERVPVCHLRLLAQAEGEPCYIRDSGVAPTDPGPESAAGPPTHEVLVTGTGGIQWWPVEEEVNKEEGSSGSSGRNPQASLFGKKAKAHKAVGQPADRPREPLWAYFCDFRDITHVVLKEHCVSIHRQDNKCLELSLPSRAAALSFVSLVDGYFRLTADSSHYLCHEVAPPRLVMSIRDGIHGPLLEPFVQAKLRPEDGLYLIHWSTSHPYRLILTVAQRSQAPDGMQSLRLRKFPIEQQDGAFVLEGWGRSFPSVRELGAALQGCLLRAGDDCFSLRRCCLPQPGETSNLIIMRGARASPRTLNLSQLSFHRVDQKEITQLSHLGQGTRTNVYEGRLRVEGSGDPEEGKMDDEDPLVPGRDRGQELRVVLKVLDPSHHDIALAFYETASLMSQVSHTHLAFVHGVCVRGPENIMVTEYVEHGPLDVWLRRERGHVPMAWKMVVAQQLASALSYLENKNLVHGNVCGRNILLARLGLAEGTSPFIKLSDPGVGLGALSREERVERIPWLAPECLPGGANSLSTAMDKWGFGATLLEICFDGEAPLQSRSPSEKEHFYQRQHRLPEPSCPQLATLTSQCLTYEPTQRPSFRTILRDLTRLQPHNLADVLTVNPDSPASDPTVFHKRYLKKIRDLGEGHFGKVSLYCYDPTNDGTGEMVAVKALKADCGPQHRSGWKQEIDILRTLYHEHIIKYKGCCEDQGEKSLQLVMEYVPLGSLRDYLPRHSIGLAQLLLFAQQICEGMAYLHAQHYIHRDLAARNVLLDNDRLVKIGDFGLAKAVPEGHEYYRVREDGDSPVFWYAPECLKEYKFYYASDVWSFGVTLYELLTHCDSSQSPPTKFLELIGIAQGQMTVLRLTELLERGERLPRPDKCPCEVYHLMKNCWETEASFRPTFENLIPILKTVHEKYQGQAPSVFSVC
# assay-name: TYK2 kinase inhibition (Table A1)
# Assay type: biochemical
# run-conditions: Table B1
Structures can show the parent of a compound that is named as a salt.
The read-out pIC50 is expressed as -log10 of concentration in moles per litre.

>>> print(df.to_string())
                                   compound  measured_metric  measurement
0  O=C(Nc1ccc2cc1CCc1cccc(c1)Nc1ncc(Cl)c(n1)N2)N[C@H]1CCN(C(=O)c2ccno2)C1 [Example B230, trifluoroacetate]            pIC50         7.82

Q: Supply reported pIC50 belonging to this compound: Brc1cnc2nc1Nc1cccc(c1)CCc1cccc(c1)N2 [Example B3, trifluoroacetate]
A: 7.82

Q: Give the reported pIC50 for this compound. CC(=O)N1CC[C@H](NC(=O)Nc2ccc3cc2CCc2cncc(c2)Nc2ncc(Cl)c(n2)N3)C1 [Example B226, bis(trifluoroacetate)]
A: 7.21

Q: Look up pIC50 of COc1cccc(NC(=O)Nc2ccc3cc2CCc2cccc(c2)Nc2ncc(Cl)c(n2)N3)c1 [Example B100, trifluoroacetate] and report it.
A: 8.06

###

Each entry below lists one item and its recorded IC50 value.
# system: human JAK3 (a.a. 781-1124) (Homo sapiens)
# Construct: JAK3 (a.a. 781-1124); His tag (N); made in house; host or cells: insect cells (baculovirus)
# assay-name: In vitro JAK kinase assay (HTRF, phosphorylation of a biotinylated peptide), JAK3
# Format: biochemical
# run-conditions: method AA1 (3 μM ATP) or AA2 (1000 μM ATP), not stated per value

                                   molecule                                    system  measured_metric  measurement
0  N#Cc1ccccc1S(=O)(=O)N1CCC(CC(=O)Nc2ccc3cc2CCc2cncc(c2)Nc2ncc(Cl)c(n2)N3)CC1 [Example A198, bis(trifluoroacetate)]  human JAK3 (a.a. 781-1124) (Homo sapiens)             IC50     > 200 nM
1  N#Cc1ccc(N2CCC(CC(=O)Nc3ccc4cc3CCc3cncc(c3)Nc3ncc(Cl)c(n3)N4)CC2)nc1 [Example A179, tris(trifluoroacetate)]  human JAK3 (a.a. 781-1124) (Homo sapiens)             IC50     > 200 nM

Consider now this further molecule.
Q: Tell me its IC50 given O=C(CC1CCN(C(=O)c2ccc(F)cc2)CC1)Nc1ccc2cc1CCc1cncc(c1)Nc1ncc(Cl)c(n1)N2 [Example A193, bis(trifluoroacetate)] as the entry.
A: > 200 nM
